Listed here are binders together with their documented koff.
# measurementTarget: T1, human PD-L1 ECD-His (human, UniProt Q9NZQ7 19-238)
# T1 construct: extracellular domain; Analyte in all SPR and BLI runs; also called hPD-L1_ECD-His; hPD-L1 ECD-His; not shown: His tag
# T1 sequence (Q9NZQ7 19-238): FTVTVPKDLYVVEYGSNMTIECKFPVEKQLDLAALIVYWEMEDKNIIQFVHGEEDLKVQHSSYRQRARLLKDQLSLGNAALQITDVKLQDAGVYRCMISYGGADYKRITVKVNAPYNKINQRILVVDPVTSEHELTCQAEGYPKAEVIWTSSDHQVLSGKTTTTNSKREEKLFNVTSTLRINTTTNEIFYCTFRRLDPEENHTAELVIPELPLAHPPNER
# experimentalDetails: BLI Octet RED96, antibody on AHC anti-human-Fc sensor, hPD-L1-His analyte, 1:1 fit
Give a bare numeral; the unit s⁻¹ is implied.

Examples with answers:
binder: PL3#7-43 deglyco2 mtIgG1 (antibody, V domains shown, N297A mutant human IgG1; also called PL3#7-43 deg1yco2) VH: QVQLVQSGAEVKKPGSSVKVSCKASGGTFSSYPISWVRQAPGQGLEWMGRIIPILGIANYAQKFQGRVTITADKSTSTAYMELSSLRSEDTAVYYCARSRPGYAFGAFDIWGQGTLVTVSS VL: QSVVTQPPPVSGAPGQRVTISCTGSSSNVGAGYDVHWYQQLPGTAPKLLIYGNSQRSSGVPDRFSGSKSGTSASLAITGLQAEDEADYYCQTYDSSGSARVVFGGGTKLTVLG
units: s⁻¹
koff: 0.000238
--
binder: PL3#7-19 mtIgG1 (antibody, V domains shown, Antibody was biotinylated (NHS-PEG4-biotin, sites not specified) for the Octet assay of Table 11., N297A mutant human IgG1; also called PL3#7-19 parental mtIgG1) VH: QVQLVQSGAEVKKPGSSVKVSCKASGGTFSSYPISWVRQAPGQGLEWMGRIIPILGIANYAQKFQGRVTITADKSTSTAYMELSSLRSEDTAVYYCARSRDGYAFGAFDVWGQGTLVTVSS VL: QSVVTQPPPVSGAPGQRVTISCTGSSSNIGGGYDVHWYQQLPGTAPKLLIYGNSTRPSGVPDRFSGSKSGTSASLAITGLQAEDEADYYCQTYDSSLSATVVFGGGTKLTVLG
units: s⁻¹
koff: 0.000207
--
binder: PL3#7-19 deglyco2 mtIgG1 (antibody, V domains shown, N297A mutant human IgG1) VH: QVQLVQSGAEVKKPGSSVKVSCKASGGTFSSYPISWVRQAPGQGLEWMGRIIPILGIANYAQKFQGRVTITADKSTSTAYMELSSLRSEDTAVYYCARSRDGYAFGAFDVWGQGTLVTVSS VL: QSVVTQPPPVSGAPGQRVTISCTGSSSNIGGGYDVHWYQQLPGTAPKLLIYGQSTRPSGVPDRFSGSKSGTSASLAITGLQAEDEADYYCQTYDSSLSATVVFGGGTKLTVLG
units: s⁻¹
koff: 0.000151

Exercise: Data request, read-out koff, for PL3#7-19 deglyco3 mtIgG1 (antibody, V domains shown, N297A mutant human IgG1) VH: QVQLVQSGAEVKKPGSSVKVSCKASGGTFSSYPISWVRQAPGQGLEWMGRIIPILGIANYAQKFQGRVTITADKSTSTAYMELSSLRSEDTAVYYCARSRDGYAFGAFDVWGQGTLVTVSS VL: QSVVTQPPPVSGAPGQRVTISCTGSSSNIGGGYDVHWYQQLPGTAPKLLIYGNSQRPSGVPDRFSGSKSGTSASLAITGLQAEDEADYYCQTYDSSLSATVVFGGGTKLTVLG
Key: 0.000176

Exercise: Looking for the measured koff of PL3#7-43 deglyco1 mtIgG1 (antibody, V domains shown, N297A mutant human IgG1; also called PL3#7-43 deglycol) VH: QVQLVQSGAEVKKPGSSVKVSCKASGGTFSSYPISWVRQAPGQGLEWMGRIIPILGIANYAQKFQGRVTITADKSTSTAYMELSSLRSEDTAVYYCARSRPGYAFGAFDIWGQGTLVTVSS VL: QSVVTQPPPVSGAPGQRVTISCTGSSSNVGAGYDVHWYQQLPGTAPKLLIYGNSNRPSGVPDRFSGSKSGTSASLAITGLQAEDEADYYCQTYDSSGSARVVFGGGTKLTVLG , can you help?
Key: 0.000271

Exercise: Query (binder): PL3#7-43 mtIgG1 (antibody, V domains shown, Antibody was biotinylated (NHS-PEG4-biotin, sites not specified) for the Octet assay of Table 11., N297A mutant human IgG1; also called PL3#7-43 parental mtIgG1) VH: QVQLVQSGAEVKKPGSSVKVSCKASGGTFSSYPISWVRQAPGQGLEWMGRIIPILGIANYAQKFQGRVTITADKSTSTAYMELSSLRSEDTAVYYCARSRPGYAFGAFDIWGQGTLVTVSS VL: QSVVTQPPPVSGAPGQRVTISCTGSSSNVGAGYDVHWYQQLPGTAPKLLIYGNSNRSSGVPDRFSGSKSGTSASLAITGLQAEDEADYYCQTYDSSGSARVVFGGGTKLTVLG ; field requested: koff
Key: 0.000212

From: patent US20190225691A1
